study_system: HUWE1 (Homo sapiens)
protocol_description: In vivo (cellular) ubiquitination of MCL1 by ectopic HA-HUWE1 in HeLa cells
settings: HeLa cells transfected with MCL1, His-ubiquitin, inhibitor 16 hrs, read-out: IC50 relative MCL1 ubiquitination
attribute_measured: IC50
Remember to put the unit after the number in your answer.

QUERY: Tell me IC50 reported for Cc1c(C(=O)Nc2ccc(CN)cc2)ncnc1N1CCC(C#N)(c2ccccc2)CC1 [BI8622]
RESULT: 6.8 µM

====

study_system: HECT-domain of HUWE1 (Homo sapiens)
Construct: 30 ng biotinylated His-HUWE1 (C-terminal ∼350 amino acids = HECT-domain); His; biotin (biotinylated)
Sequence (Q7Z6Z7 4038-4374 limits assumed): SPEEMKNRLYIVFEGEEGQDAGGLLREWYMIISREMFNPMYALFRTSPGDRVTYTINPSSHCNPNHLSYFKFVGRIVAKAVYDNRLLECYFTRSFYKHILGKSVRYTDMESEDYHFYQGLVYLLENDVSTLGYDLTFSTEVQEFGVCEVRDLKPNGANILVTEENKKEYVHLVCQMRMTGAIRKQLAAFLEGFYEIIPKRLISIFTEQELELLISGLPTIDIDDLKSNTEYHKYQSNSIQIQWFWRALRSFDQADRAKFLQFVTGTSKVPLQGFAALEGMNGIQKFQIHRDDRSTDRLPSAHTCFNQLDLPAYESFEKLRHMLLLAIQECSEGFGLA
protocol_description: HUWE1 auto-ubiquitination assay (DELFIA format)
settings: UBA1, UbcH5b, read-out: IC50 HUWE1 (in vitro auto-ubiquitination)
attribute_measured: IC50 (nM)
Quick note: give the figure in nM, leave out the unit.

NCc1cccc(CNc2ncnc3c(N4CCN(Cc5ccccc5)CC4)ncnc23)c1 ... 900

Consider now this further compound.
QUERY: Tell me IC50 reported for Cc1c(C(=O)Nc2ccc(CN)cc2)ncnc1N1CCC(C#N)(c2ccccc2)CC1
RESULT: 3100
